The molecules listed here are annotated with their Ki.
# SYSTEM NAME: Calpain-2 catalytic subunit (Sus scrofa)
# Sequence (P43367 whole entry): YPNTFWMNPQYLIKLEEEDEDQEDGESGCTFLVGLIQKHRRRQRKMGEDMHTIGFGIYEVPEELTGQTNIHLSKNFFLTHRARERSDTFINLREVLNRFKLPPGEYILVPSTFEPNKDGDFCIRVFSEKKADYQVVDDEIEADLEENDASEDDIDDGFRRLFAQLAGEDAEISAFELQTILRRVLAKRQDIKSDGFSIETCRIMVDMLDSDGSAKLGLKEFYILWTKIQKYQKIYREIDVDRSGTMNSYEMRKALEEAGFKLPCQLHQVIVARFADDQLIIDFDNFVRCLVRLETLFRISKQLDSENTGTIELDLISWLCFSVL
# EXPERIMENTAL DETAILS: Inhibition of porcine kidney calpain 2
Kindly provide the numeric value in nM only, without the unit symbol.

INSERT INTO measurements (molecule, system_name, measurement_label, result) VALUES
  ('COc1nc(N)c2ncn(CCCNC(=O)C(=O)C(Cc3ccccc3)NC(=O)[C@H](CC(C)C)NC(=O)OCc3ccccc3)c2n1 (stereo partly specified)', 'Calpain-2 catalytic subunit (Sus scrofa)', 'Ki', 209),
  ('CC(C)C[C@H](NC(=O)OCc1ccccc1)C(=O)NC(Cc1ccccc1)C(=O)C(=O)NCCCN1CCN(C)CC1 (stereo partly specified)', 'Calpain-2 catalytic subunit (Sus scrofa)', 'Ki', 6360),
  ('CCC(NC(=O)[C@H](CC(C)C)NC(=O)OCc1ccccc1)C(=O)C(=O)NCCCn1ccc(N)nc1=O (stereo partly specified)', 'Calpain-2 catalytic subunit (Sus scrofa)', 'Ki', 1140),
  ('CCC(NC(=O)[C@H](CC(C)C)NC(=O)OCc1ccccc1)C(=O)C(=O)NCCCn1cnc2c(N)nc(OC)nc21 (stereo partly specified)', 'Calpain-2 catalytic subunit (Sus scrofa)', 'Ki', 77),
  ('CC(C)C[C@H](NC(=O)OCc1ccccc1)C(=O)NC(Cc1ccccc1)C(=O)C(=O)NCCCn1cnc2c(N)ncnc21 (stereo partly specified)', 'Calpain-2 catalytic subunit (Sus scrofa)', 'Ki', 68);

**Query** Item CCC(NC(=O)[C@H](CC(C)C)NC(=O)OCc1ccccc1)C(=O)C(=O)NCCCN1CCOCC1 (stereo partly specified) : provide Ki
**Result** 41

**Query** Item CCC(NC(=O)[C@H](CC(C)C)NC(=O)OCc1ccccc1)C(=O)C(=O)NCCCN1CCN(C)CC1 (stereo partly specified) : provide Ki
**Result** 286

**Query** Item CC(C)C[C@H](NC(=O)OCc1ccccc1)C(=O)NC(Cc1ccccc1)C(=O)C(=O)NCCCn1ccc(N)nc1=O (stereo partly specified) : provide Ki
**Result** 438

**Query** Item CC(C)C[C@H](NC(=O)OCc1ccccc1)C(=O)NC(Cc1ccccc1)C(=O)C(=O)NCCCN(C)C (stereo partly specified) : provide Ki
**Result** 844

**Query** Item CC(C)C[C@H](NC(=O)OCc1ccccc1)C(=O)NC(Cc1ccccc1)C(=O)C(=O)NCCN(C)C (stereo partly specified) : provide Ki
**Result** 3520

**Query** Item CCC(NC(=O)[C@H](CC(C)C)NC(=O)OCc1ccccc1)C(=O)C(=O)NCCCn1cnc2c(N)ncnc21 (stereo partly specified) : provide Ki
**Result** 70

* * *

# EXPERIMENTAL DETAILS: Drug level in C57BL/6 mouse kidney at 24 mg/kg, sc after 1 hr by HPLC analysis
# Type: ADME, organism-based
# Parameters: dose 24 mg/kg, route subcutaneous
# EXPERIMENTAL SETUP: read-out: Drug uptake
MEASUREMENT LABEL: concentration at 1 h (ng/g)
Kindly provide the numeric value in ng/g only, without the unit symbol.

**Query** Item CCC(NC(=O)[C@H](CC(C)C)NC(=O)OCc1ccccc1)C(=O)C(=O)NCCCN1CCOCC1 (stereo partly specified) : provide concentration at 1 h
**Result** 936

* * *

The following molecules have recorded Ki on Cathepsin B (Homo sapiens).
Kindly provide the numeric value in µM only, without the unit symbol.

# count of solved cases: 2
INSERT INTO results (molecule, system_name, measurement_label, result) VALUES
  ('CC(C)C[C@H](NC(=O)OCc1ccccc1)C(=O)NC(Cc1ccccc1)C(=O)C(=O)NCCCN(C)C (stereo partly drawn)', 'Cathepsin B (Homo sapiens)', 'Ki', 75.5),
  ('CCC(NC(=O)[C@H](CC(C)C)NC(=O)OCc1ccccc1)C(=O)C(=O)NCCCn1cnc2c(N)ncnc21 (stereo partly drawn)', 'Cathepsin B (Homo sapiens)', 'Ki', 0.8);

Now consider the entry below.
**Query** Quote Ki with test system Cathepsin B (Homo sapiens) for CC(C)C[C@H](NC(=O)OCc1ccccc1)C(=O)NC(Cc1ccccc1)C(=O)C(=O)NCCCN1CCN(C)CC1 (stereo partly drawn)
**Result** 111

* * *

# EXPERIMENTAL DETAILS: Drug level in C57BL/6 mouse peripheral nerve at 24 mg/kg, iv after 1 hr by HPLC analysis
# Assay type: ADME, organism-based
# Set-up: dose 24 mg/kg, route intravenous
# EXPERIMENTAL SETUP: read-out: Drug uptake
MEASUREMENT LABEL: concentration at 1 h (ng/g)
Kindly provide the numeric value in ng/g only, without the unit symbol.

**Query** Item CCC(NC(=O)[C@H](CC(C)C)NC(=O)OCc1ccccc1)C(=O)C(=O)NCCCN1CCOCC1 (stereo partly specified) : provide concentration at 1 h
**Result** 333

* * *

# SYSTEM NAME: Calpain-1 catalytic subunit (Sus scrofa)
# Sequence (P35750 whole entry): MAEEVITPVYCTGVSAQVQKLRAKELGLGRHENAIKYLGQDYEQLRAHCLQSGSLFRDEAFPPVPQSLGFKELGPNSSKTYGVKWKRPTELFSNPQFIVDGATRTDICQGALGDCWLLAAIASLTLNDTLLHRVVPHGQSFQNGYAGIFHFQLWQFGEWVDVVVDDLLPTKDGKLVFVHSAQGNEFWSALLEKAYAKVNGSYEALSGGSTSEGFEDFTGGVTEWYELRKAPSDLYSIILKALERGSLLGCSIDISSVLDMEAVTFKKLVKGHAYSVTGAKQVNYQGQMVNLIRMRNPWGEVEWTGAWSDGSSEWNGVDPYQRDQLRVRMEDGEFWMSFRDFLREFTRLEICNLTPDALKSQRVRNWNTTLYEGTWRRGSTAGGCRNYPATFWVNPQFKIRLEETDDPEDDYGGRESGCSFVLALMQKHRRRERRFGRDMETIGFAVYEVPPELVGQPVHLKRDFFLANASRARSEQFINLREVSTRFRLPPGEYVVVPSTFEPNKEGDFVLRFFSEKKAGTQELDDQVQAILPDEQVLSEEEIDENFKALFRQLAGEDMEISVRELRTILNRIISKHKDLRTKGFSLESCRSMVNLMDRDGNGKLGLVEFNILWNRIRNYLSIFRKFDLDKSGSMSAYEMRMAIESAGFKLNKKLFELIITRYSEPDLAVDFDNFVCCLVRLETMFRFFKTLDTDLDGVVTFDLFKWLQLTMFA
# EXPERIMENTAL DETAILS: Inhibition of porcine erythrocyte calpain 1
MEASUREMENT LABEL: Ki (nM)
Kindly provide the numeric value in nM only, without the unit symbol.

# count of solved cases: 4
INSERT INTO results (compound, quantity_unit, result) VALUES
  ('CCC(NC(=O)[C@H](CC(C)C)NC(=O)OCc1ccccc1)C(=O)C(=O)NCCCn1cnc2c(N)nc(OC)nc21 (stereo partly specified)', 'nM', 23),
  ('CCC(NC(=O)[C@H](CC(C)C)NC(=O)OCc1ccccc1)C(=O)C(=O)NCCCN1CCOCC1 (stereo partly specified)', 'nM', 150),
  ('COc1nc(N)c2ncn(CCCNC(=O)C(=O)C(Cc3ccccc3)NC(=O)[C@H](CC(C)C)NC(=O)OCc3ccccc3)c2n1 (stereo partly specified)', 'nM', 41),
  ('CC(C)C[C@H](NC(=O)OCc1ccccc1)C(=O)NC(Cc1ccccc1)C(=O)C(=O)NCCCn1ccc(N)nc1=O (stereo partly specified)', 'nM', 480);

**Query** Item CC(C)C[C@H](NC(=O)OCc1ccccc1)C(=O)NC(Cc1ccccc1)C(=O)C(=O)NCCCN(C)C (stereo partly specified) : provide Ki
**Result** 226

**Query** Item CCC(NC(=O)[C@H](CC(C)C)NC(=O)OCc1ccccc1)C(=O)C(=O)NCCCn1ccc(N)nc1=O (stereo partly specified) : provide Ki
**Result** 165

**Query** Item CC(C)C[C@H](NC(=O)OCc1ccccc1)C(=O)NC(Cc1ccccc1)C(=O)C(=O)NCCCN1CCN(C)CC1 (stereo partly specified) : provide Ki
**Result** 1370

**Query** Item CCC(NC(=O)[C@H](CC(C)C)NC(=O)OCc1ccccc1)C(=O)C(=O)NCCCn1cnc2c(N)ncnc21 (stereo partly specified) : provide Ki
**Result** 53

* * *

# EXPERIMENTAL DETAILS: Drug level in C57BL/6 mouse liver at 24 mg/kg, iv after 1 hr by HPLC analysis
# Assay type: ADME, organism-based
# Design: dose 24 mg/kg, route intravenous
# EXPERIMENTAL SETUP: read-out: Drug uptake
MEASUREMENT LABEL: concentration at 1 h
Write the numeric value and follow it with the unit.

**Query** Item CCC(NC(=O)[C@H](CC(C)C)NC(=O)OCc1ccccc1)C(=O)C(=O)NCCCN1CCOCC1 (stereo partly specified) : provide concentration at 1 h
**Result** 943 ng/g

// data source = ChEMBL document CHEMBL1240500
